Reference source for all entries: paper PMC8287928

- Measured Target: SARS-CoV-2 spike S1 subunit (SARS-CoV-2 (wild type), UniProt P0DTC2 16-685)
- Assay Conditions: protein: commercial; tags: His
Criterion: Kd strictly less than 30 nM. Met: 1.0. Not met: 0.0.

| Binder | Classification |
| --- | --- |
| ACAGCGTCTGGTTGGTTTGGTTGGATCTTCGATCGCTGT (structured_DNA) [MSA3-T2] | 1.0 |
| MSA10 (structured_DNA) DNA: TTACGTCAAGGTGTCACTCCGCGGGTTTGGCTCCGGGCCTGGCGTTGCGGTCTGCTCCCCGAAGCATCTCTTTGGCGTG | 0.0 |
| MSA4 (structured_DNA) DNA: TTACGTCAAGGTGTCACTCCTGTGGGCGGGGGCGGTTGATTGTATTACTGTCGGGAGGGGGAAGCATCTCTTTGGCGTG | 1.0 |
| MSA9 (structured_DNA) DNA: TTACGTCAAGGTGTCACTCCTTCGTGTGGGTGGGGTCCTAACTTTCCTGTCGGGGTCGGGGAAGCATCTCTTTGGCGTG | 0.0 |
| MSA5 (structured_DNA) DNA: TTACGTCAAGGTGTCACTCCACGGGTTTGGCGTCGGGCCTGGCGGGGGGATAGTGCGGTGGAAGCATCTCTTTGGCGTG | 1.0 |
